System: SF-268 CNS
Assay: NCI-60 one-dose screen, 48 h (100 = growth as untreated, 0 = no growth, -100 = all killed)
Conditions: 10 µM unless noted
This is part of a sample that, as a whole, favours compounds with a hit. Of some 83,000 tested, about 20% had one in any assay.
Listed below: growth values for each entry.

Structure notation	Assayed target	Reading unit	growth
Cc1c2cc[nH]c(=O)c2c(C)c2c1[nH]c1ccc(OC(=O)c3ccccc3)cc12	SF-268 CNS	%	40
Cc1nn(-c2ccccc2)c(/N=C/N(C)C)c1/C=C/C(=O)c1ccc(Cl)cc1	SF-268 CNS	%	118
C=CC(=O)NCCOc1cccc(Nc2cc(NCCCNC(=O)C3CCC3)c(Br)cn2)c1	SF-268 CNS	%	-25.3
FC(F)(F)c1[nH]ncc1-c1nc2c(N3CCCCC3)cc3[nH]ncc3c2c2c1CCCC2	SF-268 CNS	%	-11.7
NC(=O)OCCn1cc(-c2nc(-c3c[nH]c4ncccc34)cs2)c2ccccc21	SF-268 CNS	%	50

====

Test system: SK-MEL-5 melanoma
Assay: NCI-60 one-dose screen, 48 h
Conditions: 10 µM unless noted
The panel holds about 83,000 compounds, 20% with a hit somewhere; the sample as a whole holds those more often. Calls of active or inactive are those of the source. The calls were made as follows: active = growth percent below 10; inactive = the rest.
Outcome codes: active, inactive

Molecule	Assayed target	Assigned category
Cc1[nH]c(C(=O)Nc2ccc(C(N)=O)cc2NC(C)C)c(Cl)c1Cl	SK-MEL-5 melanoma	inactive
CS(=O)(=O)Nc1cc(-c2ccc3ncnc(Nc4ccc5c(cnn5Cc5cccnc5)c4)c3c2)cnc1Cl	SK-MEL-5 melanoma	inactive
Fc1ccc2c(c1)c(-c1nc(-c3c[nH]c4ncccc34)cs1)cn2CCCN1CCOCC1	SK-MEL-5 melanoma	inactive
COc1cc(C(=O)/C=C/c2ccc(N3CCN(C)CC3)cc2)cc(OC)c1OC	SK-MEL-5 melanoma	inactive
CC(C)C[C@@H](C(=O)N[C@H](C(=O)OC1CCCC1)c1ccccc1)[C@H](O)C(=O)NO	SK-MEL-5 melanoma	inactive
O=C(N/N=C/c1ccc(O)cc1O)c1ccc(Nc2ccnc(C(F)(F)F)c2)cc1	SK-MEL-5 melanoma	inactive
Cc1c2cnccc2c(C)c2c1c1cc(C3OCCCO3)ccc1n2C	SK-MEL-5 melanoma	active
CCN(CC)CCN(CCN(CC)CC)c1ccccc1	SK-MEL-5 melanoma	inactive
N#Cc1c(-c2ccccc2)c(C#N)c2c(C#N)c(N)nn2c1N	SK-MEL-5 melanoma	inactive
COc1cc(N2C(=O)[C@H](c3ccccc3)C2c2ccc(SC)cc2)cc(OC)c1OC (some centres undefined)	SK-MEL-5 melanoma	active
O=C(/C=C/C12c3ccccc3C(c3ccccc31)C1C(=O)NC(=O)C12)c1ccccn1 (centres undefined)	SK-MEL-5 melanoma	active
O=C(O)c1cccc(N/C=C/C(=O)c2cc3cc(Br)ccc3oc2=O)c1	SK-MEL-5 melanoma	inactive
CC(CN)[C@@H]1CC[C@]2(CO)CC[C@]3(C)[C@H](CC[C@@H]4[C@@]5(C)CCC(N)C(C)(C)[C@@H]5CC[C@]43C)[C@@H]12 (some centres undefined)	SK-MEL-5 melanoma	inactive
Cc1cc(N2CCN(C)CC2)nc(NCc2cc(Nc3ccnc4cc(Cl)ccc34)ccc2F)n1	SK-MEL-5 melanoma	active
CCOC(=O)c1c(C)nc2c(c1N)CC(=O)N2Cc1cc(OC)c(OC)c(OC)c1	SK-MEL-5 melanoma	inactive
C=C1C(=O)O[C@H]2[C@H]1CC/C(COC(=O)c1cc3cc(F)ccc3[nH]1)=C\CC[C@@]1(C)O[C@@H]21	SK-MEL-5 melanoma	active
CCOC(=O)c1cn2ncnc(Oc3ccc(NC(=O)NC4CC4)c(F)c3)c2c1C	SK-MEL-5 melanoma	inactive
COc1ccc(NC(=O)c2sc3nc(C)c(C(O)c4ccccc4)cc3c2N)cc1 (centres undefined)	SK-MEL-5 melanoma	inactive
COc1cccc(/C=C/C(=O)c2cc3c(N)c(C(=O)Nc4ccccc4C)sc3nc2C)c1	SK-MEL-5 melanoma	inactive
NC(=S)N/N=C/c1cn(-c2ccccc2)nc1-c1cc2ccccc2oc1=O	SK-MEL-5 melanoma	inactive
Cc1ccc(/C=C2\CN(C(=O)C(Cl)Cl)C/C(=C\c3ccc(C)cc3)C2=O)cc1	SK-MEL-5 melanoma	active
O=P(O)(O)OCC1OC(n2cnc3c(NCc4ccccc4)ncnc32)C(O)C1O (centres undefined)	SK-MEL-5 melanoma	inactive
O=C1Nc2ccccc2C2c3cccn3-c3ccccc3N12 (centres undefined)	SK-MEL-5 melanoma	inactive
COc1ccc(-c2cc(C(=O)N3N=C(c4ccc(N)cc4)CC3c3ccccc3)c3ccccc3n2)cc1 (centres undefined)	SK-MEL-5 melanoma	inactive
O=C1/C=C/[C@@H](O)[C@@H]2C[C@@H](O)C[C@H]2/C=C/CCC[C@H](CCOCc2ccccc2)O1	SK-MEL-5 melanoma	active
O=C(Nc1ccc(F)cc1)Nc1ccccc1CNc1nc(Nc2ccc(OCCN3CCCC3)cc2)ncc1Cl	SK-MEL-5 melanoma	inactive
COc1ccc(/C(C)=C(\c2ccc(OCCN3CCCCCC3)cc2)c2ccc(OC(=O)c3ccccc3)cc2)cc1	SK-MEL-5 melanoma	inactive
COc1ccc(C2C3=C(COC3=O)N(CCO)c3cc4c(cc32)OCCO4)cc1OC (centres undefined)	SK-MEL-5 melanoma	inactive
O=C1/C(=C/c2ccc(C(F)(F)F)cc2)COc2ccc(O)cc21	SK-MEL-5 melanoma	inactive
COc1cc(Nc2c3ccc(Cl)cc3nc3ccc(OC)cc23)c2ncccc2c1	SK-MEL-5 melanoma	inactive
COc1cc(-c2nc(SCCC(C)C)nc(N3CCOCC3)c2C#N)cc(OC)c1OC	SK-MEL-5 melanoma	inactive
COc1cc(C2Cc3ncccc3-c3[nH]c(=O)c4cccnc4c32)cc(OC)c1OC (centres undefined)	SK-MEL-5 melanoma	inactive
COC(=O)C1=C(C)NC(C)=C(C(=O)OCC(C)C)C1c1ccccc1[N+](=O)[O-] (centres undefined)	SK-MEL-5 melanoma	inactive
CN(C)c1ccc(/C=C/C(=O)c2ccccc2)cc1	SK-MEL-5 melanoma	inactive
O=S(=O)(c1ccccc1)N1CCCN(c2nc(-c3ccccc3)nc3nc(-c4ccccc4)oc23)CC1	SK-MEL-5 melanoma	inactive
CCCCCCCC/C=C\CCCCCCCCOc1ccccc1CC(=O)NCC[N+]1(C)CCCCC1	SK-MEL-5 melanoma	inactive
Cn1cc(-c2nonc2-c2c[nH]c3ccccc23)c2ccccc21	SK-MEL-5 melanoma	inactive
CCOC(=O)Nc1nc2ccc(SCC(C)C)cc2s1	SK-MEL-5 melanoma	inactive
CCCCN1C(=O)/C(=c2\sc3n(c2=O)NC2C(N=3)N(CC)C(=O)N2CC)c2ccccc21 (centres undefined)	SK-MEL-5 melanoma	inactive
